Data credit: the Immune Epitope Database (IEDB)

# tested.on: HLA-A*03:01
# procedure.text: IEDB peptide-MHC binding, purified MHC/competitive/radioactivity; filed as Kd, often an IC50 or EC50 that approximates it; bounds were set here for any values at or beyond the usual limits of such assays
# measurement.setup: source organism: Mammarenavirus whitewaterense
quantity: Kd (nM)
Number only, in nM; omit the unit.

Consider the sequence `SRIFEDLVWK` tested on HLA-A*03:01; state its Kd. 872

* * *

# tested.on: HLA-A*03:01
# procedure.text: IEDB peptide-MHC binding, purified MHC/direct/fluorescence; filed as Kd, often an IC50 or EC50 that approximates it; bounds were set here for any values at or beyond the usual limits of such assays
# measurement.setup: source organism: SARS-CoV1
quantity: pKd
Note: pKd values are expressed as the negative base-10 logarithm of concentration in M.

Identify pKd associated with the sequence `VLWAHGFEL` 5.63
